Where do these numbers come from? They come from PubChem BioAssay (NCATS).

# protocol_notes: Primary qHTS for Huh7 cytotoxicity: counterscreen for inhibitors of MERS-S pseudotyped particle cell entry (AID 1479147)
# measurement_conditions: cell viability read-out; series mostly up to 57.1 µM
Inconclusive results are not listed. Calls of active or inactive are those of the source. Calls follow the shape of the full dose curve.
Hello, when you answer, please use one of the following outcomes: active, inactive

compound: CO[C@@H](COC(N)=O)C1=C(N2CC2)C(=O)C(C)=C(N2CC2)C1=O
assigned_class: inactive

Task: Hey, what did the test say about Cc1ccc(S(=O)(=O)O)cc1 ?
Output: inactive

Task: What did this assay record as the result for Cc1cccc(O)c1 ?
Output: inactive

Task: What did this assay record as the result for C[C@@]12CCCCC[C@@H](Cc3ccc(O)cc31)[C@H]2N ?
Output: inactive

Task: Tell me the assay call for O=C(CCc1ccc(O)cc1)c1c(O)cc(O)cc1O[C@@H]1O[C@H](CO)[C@@H](O)[C@H](O)[C@H]1O please.
Output: inactive

Task: What call does the record list for CCC=CCC=CCC=CCCCCCCCC(=O)O ?
Output: inactive

Task: What is the recorded call for this compound in the test? CCCCCCCCCC(=O)OC1(c2ccc(Cl)cc2)CCN(CCCC(=O)c2ccc(F)cc2)CC1
Output: inactive

* * *

# study_target: Thyroid hormone receptor beta (Homo sapiens)
# protocol_notes: qHTS assay for small molecule antagonists of thyroid hormone receptor beta signaling (AID 588547);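 also: cells stimulated with 0.4 nM T3 agonist during compound exposure; % is scaled to controls: 0 for no effect and ±100 for the full control effect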
# measurement_conditions: TR-UAS-bla HEK293, beta-lactamase ratio, antagonist mode, 18 h
Inconclusive results are not listed.
Parameter: activity change % (negative = inhibition). Scope: all listed entries.
// return numeric value only (unit: %, not printed)

molecule: COC1=CC(=O)O[C@@H](/C=C/c2ccc3c(c2)OCO3)C1
numeric_result: 4.69
//
molecule: COc1nc(NC(C)C)nc(NC(C)C)n1
numeric_result: 0.677
//
molecule: CC(C)OC(=O)Nc1cccc(Cl)c1
numeric_result: 12.8

Now, please, on to the next molecule.
Response field activity change % (negative = inhibition) (Thyroid hormone receptor beta (Homo sapiens)) for item Clc1nc(Cl)nc(Nc2ccccc2Cl)n1 : 11.4

* * *

# protocol_notes: Cell Viability - LYMP1-002 - Assay at 24 hr (AID 993); also: % is scaled to controls: 0 for no effect and ±100 for the full control effect
# measurement_conditions: LYMP1-002 lymphoblastoid cells viability; series mostly up to 92.2 µM
Activity calls are given as the source filed them. The call rests on the fitted dose curve; in most records, active means well fitted cell-killing curve with a large enough effect; inconclusive means small, poorly fitted or top-dose-only effect; inactive means flat fitted curve, though single readings scatter.
property_measured: outcome

In the examples that follow, each entry is paired with its recorded outcome.
compound: ClCBr
outcome: inactive

compound: C/C=C/c1ccc2c(c1)OCO2
outcome: inactive

compound: CC(C)(c1ccccc1)c1ccc(O)cc1
outcome: inactive

compound: CC(Cl)Cl
outcome: inactive

For reference, reported outcome for Cc1ccc([N+](=O)[O-])cc1C stands at inactive

Lab note: measured outcome of COC1=CC(=O)O[C@@H](/C=C/c2ccc3c(c2)OCO3)C1 was inactive

For record OCC1CO1 (stereo not drawn) the listed outcome is inactive

GET /value?item= CCCCOC(=O)c1ccccc1C(=O)OCCCC &field=outcome returns inactive

* * *

# protocol_notes: J3T Cancer Cell Toxicity qHTS against the NCATS CANVASS Library (AID 1347371)
# measurement_conditions: J3T dog glioma viability, ATP luminescence, 72 h; series mostly up to 46.1 µM
Inconclusive results are not listed. Activity calls are given as the source filed them. Calls come from the whole dose curve; as a rule, active = well fitted cell-killing curve with a large enough effect; inconclusive = small, poorly fitted or top-dose-only effect; inactive = flat fitted curve, though single readings scatter.
Please state which outcome applies, choosing from 1 (active), 0 (inactive)

Some solved cases for reference:
molecule: C/C=C(\C)C(=O)O[C@@H]1[C@@H](O)[C@@H]2O[C@H]3[C@H](O[C@@H](CCCCC)CCCCCCC(=O)CCC(=O)OC[C@@H](O2)[C@H]1OC(=O)/C=C/c1ccccc1)O[C@H](C)[C@H](OC(C)=O)[C@@H]3O
assigned_class: 0
--
molecule: CO[C@H]1C[C@H](O[C@H]2[C@@H](O)C[C@H](O[C@H]3CC[C@]4(C=O)[C@H]5CC[C@]6(C)C(C7=CC(=O)OC7)CC[C@]6(O)[C@@H]5CC[C@]4(O)C3)O[C@@H]2C)O[C@H](C)[C@H]1O[C@H]1C[C@@H](OC)[C@@H](O[C@@H]2O[C@H](CO)[C@@H](O)[C@H](O)[C@H]2O)[C@@H](C)O1 (stereo partly specified)
assigned_class: 1
--
molecule: C=C[C@]12C=CCN3CC[C@@]4(c5ccccc5NC(=O)[C@@H]4C1)[C@@H]32
assigned_class: 0
--
molecule: C/C=C/[C@@H]1[C@H]2C[C@@H](C)CC[C@@H]2C(C)=C[C@H]1C(=O)c1c(O)c(-c2ccc(O)cc2)c[nH]c1=O
assigned_class: 0
--
molecule: CC[C@@H]1CN2CCC3(Nc4cccc(OC)c4C3=O)[C@@H]2C[C@@H]1/C(=C\OC)C(=O)OC (stereo partly specified)
assigned_class: 0

Next molecule, please.
Task: What did the test return for CC(C)CC1C(=O)O[C@H](C(C)C)C(=O)N(C)C(CC(C)C)C(=O)O[C@@H](C(C)C)C(=O)N(C)C(CC(C)C)C(=O)O[C@H](C(C)C)C(=O)N(C)C(CC(C)C)C(=O)O[C@@H](C(C)C)C(=O)N1C (stereo partly specified) ?
Output: 0
